Data provenance: PubChem BioAssay (NCI)

Overview of reported growth across a group of compounds:
test system: OVCAR-4 ovarian; assay: NCI-60 one-dose screen, 48 h (100 = growth as untreated, 0 = no growth, -100 = all killed); details: 10 µM
This is part of a sample that, as a whole, favours compounds with a hit. Of some 83,000 tested, about 20% had one in any assay.
Attribute measured: growth (%)

* COc1ccsc1/C=N/NC(=O)c1[nH]c2ccc(Br)cc2c1-c1ccccc1 | 22.1
* CCOC(=O)C(Cc1ccccc1)N1C(=O)/C(=C/N2N=C(c3ccc(OC)cc3)CC2c2ccc3ccccc3c2)SC1=S (stereo not given) | 35.1
* COc1cc(/C=C/C(=O)c2ccc(F)cc2)ccc1Oc1nc(Nc2ccc(F)cc2)nc(N(C)C)n1 | 56.1
* Cc1nn(-c2ccccc2)c2ncn(CC(=O)N/N=C/c3c[nH]c4ccccc34)c(=O)c12 | 83.2
* CC(=O)Nc1ccc(-n2cnc3cc(-c4ccc(O)cc4)ccc32)cc1F | 61

* * *

Overview of reported growth across a group of compounds:
tested on: RPMI-8226 leukemia; experiment: NCI-60 one-dose screen, 48 h (100 = growth as untreated, 0 = no growth, -100 = all killed); details: 10 µM
About 83,000 compounds went through this panel and 20% of them were active in at least one assay; those are over-represented in the sample as a whole.
Attribute measured: growth (%)

- CC1(C)CC[C@]23CC[C@]4(C)[C@H](CC[C@@H]5[C@@]6(C)CC[C@H](N)C(C)(C)[C@@H]6CC[C@]54C)[C@H]2[C@H]1OC3=O: -31.4
- COc1ccc(C2NC(=S)NC(C)=C2C(=O)OC(C)C)cc1OC (configuration not stated): 104
- CN1CCN(Cc2ccc(C(=O)Nc3cccc(Nc4ccc5c(O)cccc5n4)c3)cc2C(F)(F)F)CC1: -10.6
- O=C(CSc1ccc(-c2ccc(Cl)cc2)nn1)Nc1ccc(Cl)c(C(F)(F)F)c1: 66.8
- O=C1Nc2ccc(Cl)cc2/C1=C/c1cccc(OCc2ccccc2)c1: -28.1
- COc1cnc2c(c1)C(=O)c1c-2n(CCCNC(C)C)c(=O)c2cc(OC)c(OC)cc12: -14.8
- Cc1cc(C)nc(NS(=O)(=O)c2ccc(N/C(N)=N/c3nccc(-c4cccs4)n3)cc2)n1: 87
- O=C(NCCCCC(c1ccc(F)cc1)c1ccc(F)cc1)NCCCc1cccnc1: -42.1
- Nc1n[nH]c2cccc(C#Cc3cccc(NC(=O)Nc4cc(C(F)(F)F)cc(C(F)(F)F)c4)c3)c12: -16.3
- COc1cc2c3c(n(CCCNCCO)c(=O)c2cc1OC)-c1nc2c(cc1C3=O)OCO2: 3.98
- COc1ccc2[nH]cc(/C=N/Nc3cccc(Cl)n3)c2c1: -0.856
- CN1C(=O)N(C)C2SC(N/N=C/C=C/c3ccccc3)=NC21 (configuration not stated): 77.1
- CCCn1c(=O)c2[nH]c(-c3ccc(OCc4nc5ccc(C(F)(F)F)cc5[nH]4)cc3)nc2n(CCC)c1=O: 28.1
- O=S(=O)(c1ccc(Cl)cc1)c1nc(-c2ccccc2)oc1S(=O)(=O)c1ccc(Cl)cc1: 36.3
- O=C(CSc1nnc(-c2ccc3nc(-c4ccc(Cl)cc4)[nH]c3c2)o1)Nc1ccc(Cl)cc1: 0.0065
- COc1ccc(N(C)c2cc(C#N)nc3ccccc23)cc1/C=C/C(=O)NO: 5.81
- CCCSc1nc(NC2CC2)c(C#N)c(-c2ccc(OC)cc2)n1: 96.6
- N#Cc1c(NC(=O)c2ccc(C(F)(F)F)c(Cl)c2)sc2c1CCC(=O)C2: 0.426
- O=C(CSc1nnc(-c2ccc3nc(-c4ccccc4)[nH]c3c2)o1)Nc1ccc(Cl)cc1: 29.6
- COC[C@@H](CC(C)C)N=C1NC(=O)/C(=C/c2ccc3ncoc3c2)N1: 0.955
- O=C(c1ccc(Cl)cc1)C1[C@H](c2ccccc2Br)[C@@H](c2ccccc2)NC12C(=O)Nc1ccc(Cl)cc12 (some centres not stated): 10.8
- O=C(Nc1cccc(-c2cn(-c3ccc4oc(=O)ccc4c3)nn2)c1)Nc1cc(C(F)(F)F)cc(C(F)(F)F)c1: 6.66
- O=C(Nc1nc2ccc([N+](=O)[O-])cc2s1)Nc1ccccc1I: -27.9
- Cc1ccc(-c2ccc(SCC(=O)Nc3ccc(S(N)(=O)=O)cc3Br)nn2)cc1: 67.8
- COc1ccc2[nH]c(=O)c(CSc3cccc(N)c3)cc2c1: 44.8
- COC(=O)C[C@](O)(CCCC(C)(C)O)C(=O)O[C@H]1C(OC)=C[C@@]23CCC(=O)N2CCc2cc4c(cc2[C@@H]13)OCO4: 106
- CC(=O)c1ccc(Nc2nc(SC(C)C)nc(-c3ccccc3)c2C#N)cc1: 90.3
- Cc1cc(C)cc(Oc2cccc(-c3c(C)nnn3C3CCN(CCN(C)C)CC3)n2)c1: -12.1
- COc1ccc(-c2cc(C(=O)N=Nc3c(O)[nH]c4ccc(Br)cc34)c3ccccc3n2)cc1: 38.7
- CC(C)NC(=O)c1cc(-c2ccc(NC(=O)Nc3ccc(N4CCN(C)CC4)c(C(F)(F)F)c3)cc2)nc2cccnc12: -37.5
- C/C(=C\c1ccc(O)cc1O)c1ccc2ccc(O)cc2[o+]1: 65.7
- Cc1ccc(/C(CSc2nnc(-c3c[nH]c4ccccc34)n2-c2ccccc2)=N/O)cc1: -19.1
- CN1CCCN(Cc2ccc(C(=O)Nc3cccc(Nc4ccc5c(O)cccc5n4)c3)cc2C(F)(F)F)CC1: 2.61
- COc1csc(/C=N/NC(=O)c2[nH]c3ccc(Br)cc3c2-c2ccccc2)c1: 6.04
- Cc1cc(=O)oc2cc(OCCCCOc3ccc(/C=C/C(=O)Nc4cccc(Cl)c4)cc3)ccc12: 57.8
- CCCCSc1nc(Nc2ccc(/C(C)=N/NC(N)=S)cc2)c(C#N)c(-c2ccccc2)n1: 47.3
- O=c1[nH]n(C(=S)N/N=C/c2ccc(F)cc2)c(=O)c2ccccc12: -22.5
